Origin of the recorded values: PubChem BioAssay (NCI)

Each entry below carries its reported TGI.
- Tested on: LOX IMVI melanoma
- experiment.description: NCI tumour cell line growth inhibition, 48 h
measurement.type: TGI

- O=C(c1ccc([N+](=O)[O-])cc1)N1CCCC1: > 100 µM
- COc1c(N2CCN(CN3C(=O)C(=Nc4ccc(S(=O)(=O)Nc5ncccn5)cc4)c4cc(Cl)ccc43)C(C)C2)c(F)cc2c(=O)c(C(=O)O)cn(C3CC3)c12 (stereo not given): > 50 µM
- Cc1ccc(C)c(COCCOCn2cc(N3CCOCC3)c(=O)[nH]c2=O)c1: > 100 µM
- CC[C@H](NC(=O)OC(C)(C)C)C(=O)NCP(=O)(OCc1ccc([N+](=O)[O-])cc1)OCc1ccc([N+](=O)[O-])cc1: > 100 µM
- O=C(c1ccco1)N(C(=O)N1CCC(c2ccccc2)CC1)c1ccccc1: > 100 µM
- CC(=O)Oc1ccn2nc(C)c(Br)c2c1: > 100 µM
- O=c1[nH]c(=O)n(C2CC(O)C(CO)O2)cc1C(F)(F)F (stereo not given): > 100 µM
- C=C1C(OC(C)=O)CC(OC(C)=O)C2(C)C(OC(C)=O)C(OC(C)=O)C3=C(C)C(OC(=O)/C=C/c4ccccc4)CC(C(OC(C)=O)C12)C3(C)C (stereo not given): > 100 µM
- CC/C=N\N1C(N)=C(C#N)C(C#N)(C#N)C1CC (stereo not given): > 100 µM
- N#Cc1cccc(N2C(=O)C3C4C=CC(C3C2=O)C2C(=O)N(c3cccc(C#N)c3)C(=O)C42)c1 (stereo not given): > 63.1 µM

====

Each entry below lists one item and its recorded GI50 value.
- Test system: OVCAR-5 ovarian
- experiment.description: NCI tumour cell line growth inhibition, 48 h
measurement.type: GI50

• CC1(C)CCC[C@]2(C)c3ccccc3C(=O)CC12 (some centres undefined) = > 100 µM
• C1=CCCC=CCC1.C[PH+](C)C.C[PH+](C)C.C[PH+](C)C.[Cl-].[Ir] = > 100 µM
• CN1CCN(CCCOc2cc(O)c3c(=O)cc(-c4ccccc4)oc3c2)CC1 = 20.3 µM
• C=C(C)[C@@H]1CC[C@]2(C(=O)NS(=O)(=O)c3ccccc3)CC[C@]3(C)[C@H](CC[C@@H]4[C@@]5(C)CC[C@H](OC(=O)NS(=O)(=O)c6ccccc6)C(C)(C)[C@@H]5CC[C@]43C)[C@@H]12 = 3.02 µM

====

- Tested on: MALME-3M melanoma
- experiment.description: NCI tumour cell line growth inhibition, 48 h
measurement.type: TGI

- CC(=O)NN1C(=O)C(Cc2ccccc2)c2ccccc21 (stereo not drawn): > 100 µM
- C=C1C(=O)O[C@H]2C[C@@H]1C(=O)CC(C)CCCC(C)=CCC[C@@]2(C)O (stereo partly drawn): > 25 µM
- CSc1nc(Cl)c2c(n1)Sc1nc3ccccc3n1C2O (stereo not drawn): > 67.3 µM

====

The compounds listed here are annotated with their TGI.
- Tested on: K-562 leukemia
- experiment.description: NCI tumour cell line growth inhibition, 48 h
measurement.type: TGI

- Cc1cc(-c2ccccc2)nc2oc(=O)n(C)c12: > 100 µM
- CC[C@H](C)[C@H](NC(=O)c1cccn1C)C(=O)N(C)[C@H](C[C@@H](OC(C)=O)c1nc(C(=O)N[C@@H](Cc2ccccc2)C[C@H](C)C(=O)OC)cs1)C(C)C: > 33.3 µM
- CN(C)CCCNc1nc2ccccc2c2[nH]c3ccccc3c12: 22.2 µM
- C[C@]12C[C@H](O)[C@H]3[C@@H](CCC4=CC(=O)CC[C@@]43C)[C@@H]1CC[C@@H]2c1csc(-c2ccccc2)n1: > 100 µM
- CNC(=O)CN(CC(=O)O)C(=O)NC: > 100 µM
- CC(C)(C)OC(=O)Nc1ccc2c(c1)C(NC(=O)Nc1cccc(C#N)c1)CC(C)(C)O2 (configuration not stated): > 100 µM
- Cc1nc2c(=O)n(-c3ccccc3)c(=O)n(-c3ccccc3)c2o1: > 100 µM
- COc1ccc(C2C=C(c3ccc(C)cc3)N(c3ccc(OC)cc3[N+](=O)[O-])C3C(=O)OC(=O)C23)c(OC)c1 (configuration not stated): > 100 µM
- C=C1CCC2C3(C)COC(c4ccccc4Cl)OC3CCC2(C)C1/C=C/C1=CCOC1=O (configuration not stated): > 100 µM
- COc1cc(NCCCCCN=C(N)NC(N)=NC(C)C)c2ncccc2c1: 19.3 µM
- COc1ccc(-c2cc3cc(Cl)cc(Cl)c3oc2=O)cc1OC: > 100 µM
- COC(=O)N[C@H]1CCc2c(Cl)c(OC)c(OC)c(OC)c2-c2ccc(SC)c(=O)cc21: > 43.9 µM
- O=C(NC(C(F)(F)F)(C(F)(F)F)P(=O)(Cc1ccccc1)Cc1ccccc1)C(C(F)(F)F)C(F)(F)F: > 100 µM
- CS(=O)(=O)N(c1cc(-c2ccc3ncnc(Nc4ccc(F)c(Cl)c4)c3c2)cnc1Cl)S(C)(=O)=O: > 100 µM
- CCc1nc2c(c(N(C)C)c1C(=O)OC)CCc1ccccc1-2: 77.3 µM
- CC(=O)Oc1ccc2c(-c3ccccc3)c(Oc3ccc(Cl)cc3)c(=O)oc2c1: 31.6 µM
- C1=CCCC=CCC1.C[PH+](C)C.C[PH+](C)C.C[PH+](C)C.[Cl-].[Ir]: > 100 µM
- COc1ccc2[nH]c(C(=O)OCc3ccc4c(Cl)cc(Cl)c(O)c4n3)cc2c1: 3.05 µM
- C=C1C[C@@H]2C[C@@H](C)CC(O)[C@]2(CCCN)C1O (some centres not stated): > 100 µM
- CNC(=S)N1CCN(C(C)=O)C1=S: > 100 µM
- O=C(/C=C/C12c3ccccc3C(c3ccccc31)C1C(=O)NC(=O)C12)c1ccccc1 (configuration not stated): > 100 µM
- CN(N)c1nc(N)c(C#N)c(C#N)c1C#N: > 10 µM
- COc1ccc(C(=O)/C=C/SC(=NC#N)SC)cc1: > 100 µM
- COc1cc2c3c(n(CCCNCCCN)c(=O)c2cc1OC)-c1cc2c(cc1C3=O)OCO2: 10.4 µM
- O/N=C/c1ccc(O)c(O)c1: > 100 µM
- CO/N=C(\COc1ccc2oc(-c3ccccc3)cc(=O)c2c1)c1ccc(F)cc1: > 100 µM
- CC(C)(C)OC(=O)N[C@@H](Cc1ccccc1)C(=O)N(Cc1ccccc1)C1(C(=O)NCc2ccccc2)CCN(Cc2ccccc2)CC1: > 100 µM
- Nc1ccc(/C=C/c2ccc3cccnc3c2)cc1: > 100 µM
- O=C([C@H](O)[C@@H](O)c1cccc(Cl)c1)C12CC3CC(CC(C3)C1)C2: > 100 µM
- O=C[C@@H](CO)O[C@H](C=O)n1cnc2c(=O)[nH]cnc21: 496 µM
- Nc1c2ccccc2nc2c(C(=O)Nc3ccc(S(N)(=O)=O)cc3)cccc12: > 100 µM
- C[C@H]1C=C2C(=O)O[C@H]3CC[C@@H](C1)[C@@]23O: 8.26 µM
- CC/C(=C/c1ccc(OC)cc1OC)[N+](=O)[O-]: 61.5 µM
- Nc1c(N2CCOCC2)c(=O)nc2[nH]/c(=C\c3ccccc3O)c(=O)n12: > 100 µM
- Cn1c(=O)cc(NNc2ccc(Cl)c(Cl)c2)[nH]c1=O: 23.1 µM
- N#CCCN(CCC#N)c1ccc(C(N=Nc2ccccc2)=Nc2ccc(F)cc2)cc1: > 100 µM
- COc1ccc(OC(C)C(=O)O)c2c(=O)ccccc12 (configuration not stated): > 100 µM

====

- Test system: MALME-3M melanoma
- experiment.description: NCI tumour cell line growth inhibition, 48 h
measurement.type: TGI

* O=c1/c(=N\Nc2ccccc2)c2cccc3ccc4cccc1c4c32 | > 100 µM
* O=c1c2cc([N+](=O)[O-])ccc2oc2nc3n(c(=O)c12)CCCS3 | > 100 µM
* CC1=CCCC2C(C=O)(C1)CC(C)C2(CO)CC/C(=C/CO)CO (centres undefined) | > 100 µM
* C=CN(C=C)C(=O)Cn1cc(-c2ccccc2)nn1 | > 100 µM

====

- Test system: M14 melanoma
- experiment.description: NCI tumour cell line growth inhibition, 48 h
measurement.type: TGI

• CCOC(=O)/C=C/CCC(C)(C)COC(C)=O = > 10 µM
• O=C(c1ccco1)N(C(=O)N1CCC(c2ccccc2)CC1)c1ccccc1 = > 100 µM
• O=C(O)c1ccc(SSc2ccc(C(=O)O)cn2)nc1 = > 100 µM
• N#Cc1cc(S(=O)(=O)Nc2nc3ccccc3o2)c(SCc2ccccc2)cc1Cl = 52.7 µM
• CSc1ccc(/C=C2\N=C(c3ccccc3)N(c3nc4cc(Cl)c(F)cc4s3)C2=O)cc1 = > 100 µM
• COc1ccc2c(c1OC)C(=O)N1C2=Cc2c(cc3c(c2OC)OCO3)CC1N(C)C (stereo not given) = > 100 µM
• CC(C)=CCC[C@@H](C)C1=C(Nc2ccccc2F)C(O)=C(C)C(=O)C1=O = > 100 µM
• COCCNc1cncc(C(N)=O)c1 = > 100 µM
• O/N=C/c1ccc(O)c(O)c1 = > 100 µM
• CNC(=O)c1cncc(/C=C/c2ccccc2Cl)c1 = > 25 µM
• COc1ccc(-c2cc(=O)c3c(O)c(OC)c(OC)c(OC)c3o2)cc1 = > 100 µM
• O=C(C(=C(I)I)c1ccccc1)c1ccccc1 = 73.3 µM
• COc1cc(C(=O)c2cocc2C(=O)c2ccc3c(c2)OCO3)cc(OC)c1OC = 33.5 µM
• CC1SC(c2ccc(Cl)cc2Cl)N(NC(=O)C(O)c2ccccc2)C1=O (stereo not given) = > 100 µM
• O=C(/C=C/C12c3ccccc3C(c3ccccc31)C1C(=O)NC(=O)C12)c1ccccc1 (stereo not given) = 3.68 µM
• Nc1ccc(/C=C/c2ccc3cccnc3c2)cc1 = > 100 µM
• C[N+](C)=c1ccc2nc3c(cc(NCCCNc4cc5oc6cc(=[N+](C)C)ccc-6nc5c5ccccc45)c4ccccc43)oc-2c1 = 3.18 µM
• O=C[C@@H](CO)O[C@H](C=O)n1cnc2c(=O)[nH]cnc21 = 1860 µM
• CC(C)=C/C(CC(O)(C(F)(F)F)C(F)(F)F)=N\O = > 100 µM
• O=[N+]([O-])c1ccc(-c2csc(=[N+]3CCCCC3)s2)cc1 = > 100 µM
